Origin of values: the supplement of paper PMC11208160

Experiment: recombinant barcode read abundance after kanamycin selection (control-corrected) (log10(CPM+1)); higher = more efficient recombination; sequences stand for … in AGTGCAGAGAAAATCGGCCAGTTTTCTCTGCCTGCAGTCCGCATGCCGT…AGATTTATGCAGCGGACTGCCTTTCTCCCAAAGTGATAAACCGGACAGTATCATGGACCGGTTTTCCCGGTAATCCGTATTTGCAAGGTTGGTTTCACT; site = the 11-nt target;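 further: IS621 recombinase and bridge RNA in Escherichia coli cells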
Outcome label depends on recombinant barcode read abundance (log10) relative to 0.2: at/above gives satisfied, below gives not satisfied.

## Task Check if recombinant barcode read abundance (log10) >= 0.2 (inclusive). Item: TATGAGGCTTGGGTTCTAACCTGTTGCCT (site TATGGGGCTAG)
## Result not satisfied

## Task Evaluate ACCCAGCCTTGGGTTCTAACCTGTTGCTT (site ACCCAGCCTAG) : recombinant barcode read abundance (log10) at minimum 0.2?
## Result satisfied

## Task Is it the case that CTAATTGCTTGGGTTCTAACCTGTTGCAA (site CTAGTTGCTTT) has recombinant barcode read abundance (log10) reaching or exceeding 0.2?
## Result satisfied

## Task Does the reported recombinant barcode read abundance (log10) for CAGGCGCCTTGGGTTCTAACCTGTTGCCT (site CAGGCGGCTAG) fall at or above the 0.2 mark?
## Result not satisfied

## Task Check this sequence for recombinant barcode read abundance (log10) at or above 0.2: CTAACCACTTGGGTTCTAACCTGTTGCCA (site CTAACCACTTG)
## Result satisfied

New cases:
## Task Decide: recombinant barcode read abundance (log10) of TCTTATTCTTGGGTTCTAACCTGTTGCCT (site TCTTATTCTAG) >= 0.2?
## Result not satisfied

## Task Exam item: decide whether the reported recombinant barcode read abundance (log10) for CTATGGACTTGGGTTCTAACCTGTTGCAC (site CTATGGACTAT) is at least 0.2.
## Result not satisfied

## Task Reported recombinant barcode read abundance (log10) at or above 0.2? GGGACCTCTTGGGTTCTAACCTGTTGCGT (site GGGACCTCTAC)
## Result satisfied
